Entries and their measured melting point follow.

Please review the following examples before continuing.
{"molecule": "CCCCCCC1C(=O)CCC1C(=O)O (configuration not stated)", "melting point": "73 to 74 °C"}
{"molecule": "COc1ccc(-n2nnc(-c3ccc(Cl)c(Cl)c3)c2N)cc1", "melting point": "190 to 191 °C"}
{"molecule": "Cc1c(N)c2c(c3c1C(c1ccc(C(C)C)cc1)CO3)CCC2 (configuration not stated)", "melting point": "112 to 113 °C"}
{"molecule": "CCCCCN1C(=O)C2(COc3cc4c(cc32)OCO4)c2c(C(=O)Nc3cccc(OC)c3)cccc21 (configuration not stated)", "melting point": "173 to 175 °C"}

# input What does the record list as melting point for c1ccc(N2CCN(CCCCc3cccnc3)CC2)nc1 ?
# output 54 to 64 °C

# input What does the record list as melting point for O=C(C[C@@H](C(=O)OCc1ccccc1)n1c2ccccc2c2ccccc21)OCCOC(=O)c1ccc(NC(=O)OCc2ccccc2)cc1 ?
# output 58 °C

# input What does the record list as melting point for CN(C)C=Nc1ccc(I)cc1C#N ?
# output 53 to 55 °C

# input What does the record list as melting point for C=CS(=O)(=O)NCc1ccc(C(N)=O)cc1 ?
# output 142 to 144 °C
